B1: VH:VL chains; a variant is named by its letters at X, in order (parent)
chain 1: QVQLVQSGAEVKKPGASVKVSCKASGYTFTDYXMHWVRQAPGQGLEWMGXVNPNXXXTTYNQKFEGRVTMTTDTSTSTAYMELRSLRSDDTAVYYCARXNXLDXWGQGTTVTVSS
chain 2: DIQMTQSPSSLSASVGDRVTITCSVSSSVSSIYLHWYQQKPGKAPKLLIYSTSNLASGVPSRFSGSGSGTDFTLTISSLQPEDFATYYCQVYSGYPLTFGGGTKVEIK

variants of: B1; test: yeast display scFab, FACS + sequencing; settings: with MET
Some of the results follow. No count for the full screen is at hand.
readout_label: antigen binding call

Example results:
>  <mutations>
VTGTGAAD

>  <result>
no binding

$$$$
>  <mutations>
YRRRGFWY

>  <result>
no binding

$$$$
>  <mutations>
FRGGGVGV

>  <result>
binds

$$$$
>  <mutations>
FRAKGSAD

>  <result>
binds

$$$$
>  <mutations>
FAGEGAGV

>  <result>
no binding

$$$$
>  <mutations>
YRRGSSSA

>  <result>
binds

$$$$
>  <mutations>
YRRRGAWF

>  <result>
binds

$$$$
>  <mutations>
YRRRGDVY

>  <result>
binds

$$$$

# lookup: antigen binding call of `VRGGGVGV`
no binding

# lookup: antigen binding call of `FKGGNVGV`
no binding
